RUN_DESCRIPTION: Drug metabolism in wild-type FVB mouse colon S9 fraction assessed as compound sulfation rate at 10 uM by UPLC-MS/MS analysis
Format: ADME, tissue-based
MEASUREMENT_SETUP: s9, 10 µM
MEASUREMENT_NAME: Drug metabolism

Consider the molecule O=c1c(-c2ccc(O)cc2)coc2cc(O)cc(O)c12 and give its recorded Drug metabolism.
26.5 pmol/min/mg

---

RUN_DESCRIPTION: Drug recovery in human Caco2 cells at 2 to 10 uM after 4 hrs by UPLC-MS/MS analysis
Type: ADME, cell-based
MEASUREMENT_SETUP: Caco-2, read-out: Drug recovery
MEASUREMENT_NAME: recovery at 4 h, up to 10 µM (%)
Just the number in %, nothing appended.

Using the record for O=c1c(-c2ccc(O)cc2)coc2cc(O)cc(O)c12 , state its measured recovery at 4 h, up to 10 µM.
92.3

---

RUN_DESCRIPTION: Cmax in wild-type FVB mouse at 20 mg/kg, ip
Format: ADME, organism-based
Set-up: dose 20 mg/kg, route intraperitoneal
MEASUREMENT_SETUP: in vivo
MEASUREMENT_NAME: Cmax (nM)
Expressed in nM, but write only the number.

In one line, give reported Cmax of the entry O=c1c(-c2ccc(O)cc2)coc2cc(O)cc(O)c12 .
2680

---

RUN_DESCRIPTION: Drug metabolism in wild-type FVB mouse hepatic S9 fraction assessed as compound sulfation rate at 10 uM by UPLC-MS/MS analysis
Assay type: ADME, Liver
MEASUREMENT_SETUP: s9, 10 µM
MEASUREMENT_NAME: Drug metabolism (pmol/min/mg)
Please respond with the number in pmol/min/mg and leave the unit unwritten.

Report Drug metabolism for O=c1c(-c2ccc(O)cc2)coc2cc(O)cc(O)c12
13.3

---

RUN_DESCRIPTION: AUC (0 to 3 hrs) in BCRP-/- mouse at 50 mg/kg, po
Format: ADME, organism-based
Set-up: time < 3 hr, dose 50 mg/kg, route oral
MEASUREMENT_SETUP: plasma
MEASUREMENT_NAME: AUC(0-t) at 3 h (µM·h)
Lab book: enter the figure in µM·h, no units written.

// Input: O=c1c(-c2ccc(O)cc2)coc2cc(O)cc(O)c12 . Output its AUC(0-t) at 3 h only.
5

---

RUN_DESCRIPTION: Biliary excretion in BCRP-/- mouse measured after 2.5 hrs post intestinal perfusion by UPLC-MS/MS analysis
Type: ADME
MEASUREMENT_SETUP: bile, read-out: Drug excretion
MEASUREMENT_NAME: concentration at 2.5 h

Please look at this compound and report its concentration at 2.5 h: O=c1c(-c2ccc(O)cc2)coc2cc(O)cc(O)c12
9.1 µM

---

RUN_DESCRIPTION: AUC ( 0 to t) in BCRP-/- mouse at 20 mg/kg, ip
Format: ADME, organism-based
Parameters: dose 20 mg/kg, route intraperitoneal
MEASUREMENT_SETUP: plasma
MEASUREMENT_NAME: AUC(0-t) (µM·h)
Use µM·h as the unit, but write only the number.

Name the recorded AUC(0-t) of the item O=c1c(-c2ccc(O)cc2)coc2cc(O)cc(O)c12 in your answer.
11.5

---

RUN_DESCRIPTION: Half life in wild-type FVB mouse at 20 mg/kg, ip
Type: ADME, organism-based
Set-up: dose 20 mg/kg, route intraperitoneal
MEASUREMENT_SETUP: in vivo
MEASUREMENT_NAME: half-life (h)
Number in h, nothing else.

Provide only the value of recorded half-life for O=c1c(-c2ccc(O)cc2)coc2cc(O)cc(O)c12 [GENISTEIN]
4.8

The origin of these recorded values is ChEMBL document CHEMBL3526009.
